test: NFAT Signaling Pathway (AID 444); settings: Jurkat NFAT-bla M1, carbachol, beta-lactamase ratio, 5 h; at 17.2 µM (top of the series) unless noted;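 further: carbachol stimulus at about its EC50 of 1 µM final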
Results filed as inconclusive are left out. Active and inactive are the calls of the source. The call rests on the fitted dose curve; in most records, active means well fitted curve in either direction with a large enough effect (not every such curve was filed as active); inconclusive means small, poorly fitted or top-dose-only effect, or another doubt; inactive means flat fitted curve, though single readings scatter.
Write down the outcome that applies. Available outcomes: active, inactive

[
  {
    "item.smiles": "CCOC(=O)c1c(C)n(C)c2ccc(OC)c(NC(=O)CN3CCSCC3)c12",
    "assigned.label": "inactive"
  }
]

Given COc1ccc2[nH]c(C)c(C(=O)CN3CCN(C(=O)c4ccco4)CC3)c2c1 , state the outcome it received in this test. inactive

Given CCOC(=O)CSc1nc(-c2ccc3c(c2)OCO3)ccc1C#N , state the outcome it received in this test. inactive

Given C=C1C(=O)O[C@@H]2[C@@H]1CC/C(C)=C\CC[C@@]1(C)O[C@H]21 , state the outcome it received in this test. active

Given c1ccc(Cc2nn[nH]n2)cc1 , state the outcome it received in this test. inactive

Given COC(=O)CSc1ncnc2c1sc1nc(-c3ccco3)c3c(c12)CC(C)(C)OC3 , state the outcome it received in this test. inactive

* * *

test system: CP192; test: qHTS profiling for inhibitors of Plasmodium falciparum proliferation (AID 504749);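 further: 0% = DMSO vehicle and full inhibition = artemisinin control; nearly all actives have a fitted effect of over 60% in size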; conditions: P. falciparum in erythrocytes, SYBR Green DNA, 72 h; series mostly up to 28.7 µM
Inconclusive results are not listed. The source made the active and inactive calls. The call rests on the fitted dose curve; in most records, active means well fitted inhibition curve with a large enough effect; inconclusive means small, poorly fitted or top-dose-only effect; inactive means flat fitted curve, though single readings scatter.
Write down the outcome that applies. Available outcomes: true = active, false = inactive

[
  {
    "compound": "N#C/C(=C1/SCC(c2ccccc2Cl)S1)n1ccnc1 (stereo not given)",
    "assigned.label": "false"
  },
  {
    "compound": "Cc1cn([C@H]2CC(F)[C@@H](CO)O2)c(=O)[nH]c1=O (stereo not given in full)",
    "assigned.label": "false"
  },
  {
    "compound": "Cc1onc(-c2c(F)cccc2Cl)c1C(=O)NC1C(=O)N2C1SC(C)(C)C2C(=O)O (stereo not given)",
    "assigned.label": "false"
  },
  {
    "compound": "CCN(CC)C(=O)Nc1ccc(OC[C@H](O)CNC(C)(C)C)c(C(C)=O)c1",
    "assigned.label": "false"
  }
]

Given OCC1O[C@@H](O[C@@H]2C(CO)OC(O)C(O)C2O)C(O)C(O)C1O (stereo not given in full) , state the outcome it received in this test. false

* * *

Entries and their measured Potency follow.
molecular target: Glucocorticoid receptor (Homo sapiens) (UniProt P04150); experiment: GR-GFP Redistribution (AID 450); details: U2OS GR-GFP nuclear translocation, laser cytometry, 2 h; series mostly up to 20.6 µM; further: potency means the concentration at half of the fitted maximal effect
Sequence (P04150 whole entry, looked up): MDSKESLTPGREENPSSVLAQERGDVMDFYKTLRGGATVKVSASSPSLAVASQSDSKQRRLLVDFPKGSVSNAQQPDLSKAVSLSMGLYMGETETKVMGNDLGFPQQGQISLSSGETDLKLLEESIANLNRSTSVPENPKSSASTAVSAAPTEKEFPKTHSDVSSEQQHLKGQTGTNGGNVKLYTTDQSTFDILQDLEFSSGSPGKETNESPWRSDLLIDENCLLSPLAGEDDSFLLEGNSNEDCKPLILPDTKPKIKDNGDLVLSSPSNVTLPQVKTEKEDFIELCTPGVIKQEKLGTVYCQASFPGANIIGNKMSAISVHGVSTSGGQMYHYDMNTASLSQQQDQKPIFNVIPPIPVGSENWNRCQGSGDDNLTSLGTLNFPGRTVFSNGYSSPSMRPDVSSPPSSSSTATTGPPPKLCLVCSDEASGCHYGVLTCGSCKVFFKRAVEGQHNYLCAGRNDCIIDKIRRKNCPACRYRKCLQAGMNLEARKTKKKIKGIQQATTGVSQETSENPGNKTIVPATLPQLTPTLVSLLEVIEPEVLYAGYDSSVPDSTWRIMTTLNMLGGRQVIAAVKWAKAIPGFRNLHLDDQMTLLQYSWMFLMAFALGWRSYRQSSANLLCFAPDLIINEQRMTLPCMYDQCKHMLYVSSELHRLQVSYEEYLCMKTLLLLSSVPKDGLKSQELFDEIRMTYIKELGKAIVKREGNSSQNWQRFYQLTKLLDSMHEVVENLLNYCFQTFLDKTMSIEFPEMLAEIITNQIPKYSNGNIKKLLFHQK
The source made the active and inactive calls.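 Rule for the calls: active = compounds whose dose series gives a full or clear partial fitted curve of increased nuclear translocation; inconclusive = weak partial curve or effect only at the top dose; inactive = no dose-dependent translocation response.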

Example entries and their recorded answers appear below.
[
  {
    "compound": "C=C(C)CN(CC)CCC(=O)Nc1ccc(OC)cc1OC",
    "Potency": "> 20.6 µM (inactive)"
  },
  {
    "compound": "CCOC(=O)c1nc(N)c(C(=O)OCC)[nH]1",
    "Potency": "> 20.6 µM (inactive)"
  },
  {
    "compound": "COc1ccc2c(c1)CN([C@H](C)[C@@H]1CC[C@@H]3[C@H]4CC[C@H]5C[C@@H](O)CC[C@@]5(C)[C@H]4CC[C@]31C)CO2",
    "Potency": "> 46 µM (inactive)"
  },
  {
    "compound": "CCOCCn1c(SC)nc2c1c(=O)[nH]c(=O)n2C",
    "Potency": "> 20.6 µM (inactive)"
  },
  {
    "compound": "Cc1ccc(OCC(=O)NCC(=O)n2nc(C)cc2C)cc1",
    "Potency": "> 20.6 µM (inactive)"
  }
]

Any idea what Potency came out for CNC(=O)c1ncnnc1N(C)C(=O)NCc1ccccc1 on Glucocorticoid receptor (Homo sapiens) (UniProt P04150)? > 20.6 µM (inactive)

Any idea what Potency came out for COc1cc2c(cc1OC)-c1c(OC)c(OC)cc3ccnc(c13)C2=O on Glucocorticoid receptor (Homo sapiens) (UniProt P04150)? > 46 µM (inactive)

Any idea what Potency came out for COc1ccc(Cn2c(N)c(C#N)c3nc4ccccc4nc32)cc1OC on Glucocorticoid receptor (Homo sapiens) (UniProt P04150)? > 20.6 µM (inactive)

Any idea what Potency came out for Cc1cccc(OCCN2CSC(=S)N(C)C2)c1 on Glucocorticoid receptor (Homo sapiens) (UniProt P04150)? > 20.6 µM (inactive)

Any idea what Potency came out for CCOC(=O)c1cc(C)n(-c2ccc(OC)c(OC)c2)c1C on Glucocorticoid receptor (Homo sapiens) (UniProt P04150)? > 20.6 µM (inactive)

Any idea what Potency came out for COc1ccccc1-c1cc(=O)c2cc(O)ccc2o1 on Glucocorticoid receptor (Homo sapiens) (UniProt P04150)? > 46 µM (inactive)

Any idea what Potency came out for O=C1c2ccccc2C(=O)N1CCN1CCc2ccccc21 on Glucocorticoid receptor (Homo sapiens) (UniProt P04150)? > 20.6 µM (inactive)

Any idea what Potency came out for Clc1ccc2[nH]c3c(NCCCN4CCOCC4)ncnc3c2c1 on Glucocorticoid receptor (Homo sapiens) (UniProt P04150)? > 20.6 µM (inactive)

Any idea what Potency came out for COc1ccc(/C(O)=C2/C(=O)C(=O)N(CCN3CCOCC3)C2c2ccccn2)cc1OC (stereo unspecified) on Glucocorticoid receptor (Homo sapiens) (UniProt P04150)? > 20.6 µM (inactive)

Any idea what Potency came out for CCN(CC)CCN1C(=O)C(O)=C(C(=O)c2cccs2)C1c1ccccn1 (stereo unspecified) on Glucocorticoid receptor (Homo sapiens) (UniProt P04150)? > 20.6 µM (inactive)

Any idea what Potency came out for COC(=O)c1ccc(N2C(=O)CC(N3CCN(C(=O)c4ccco4)CC3)C2=O)cc1 (stereo unspecified) on Glucocorticoid receptor (Homo sapiens) (UniProt P04150)? > 20.6 µM (inactive)

* * *

Target: Cytochrome P450 2C9 (Homo sapiens)
Assay: qHTS Assay for Inhibitors and Substrates of Cytochrome P450 2C9 (AID 883); further: nearly all actives have a fitted effect of over 60% in size
Details: recombinant CYP2C9, luciferin-H luminescence, 60 min; series mostly up to 57.1 µM
Method: NIH Molecular Libraries Screening Centers Network [MLSCN] NIH Chemical Genomics Center [NCGC] MLSCN Grant: None NCGC Assay Overview: The P450 gene superfamily is involved in the metabolism and clearance of xenobiotics. […] The luciferin is then measured by luminescence after the addition of a luciferase detection reagent. […] Inhibitors and some substrates limit the production of luciferin, and decrease measured luminescence. […]
Records with an inconclusive call do not appear. Active and inactive are the calls of the source. The call rests on the fitted dose curve; in most records, active means well fitted inhibition curve with a large enough effect; inconclusive means small, poorly fitted or top-dose-only effect; inactive means no such curve, though single readings can be large or run the other way. Where a SMILES comes first, the peptide text is derived from it.
Write down the outcome that applies. Available outcomes: 1 = active, -1 = inactive

[
  {
    "molecule": "CC1(C)CC[C@]2(C(=O)O)CC[C@]3(C)C(=CC[C@@H]4[C@@]5(C)CC[C@H](O)C(C)(C)[C@@H]5CC[C@@]43C)[C@@H]2C1",
    "assigned.label": -1
  }
]

Given N[C@@H](Cc1c[nH]c2ccccc12)C(=O)NCC(=O)O (H-Trp-Gly-OH) , state the outcome it received in this test. -1

Given COC(=O)[C@@]1(Cc2ccc(F)cc2)[C@H]2c3cc(C(=O)N4CCCC4)n(CCc4ccc(OC)c(Br)c4)c3C[C@H]2CN1C(=O)c1ccccc1 , state the outcome it received in this test. 1

Given COc1ccccc1-c1oc2ccccc2c(=O)c1OC , state the outcome it received in this test. 1

Given CC(C)[C@@H](CC(=O)N[C@@H]1CCCC[C@H]1C(=O)N[C@H](CC(=O)N[C@@H](CCC(=O)O)CC(=O)O)Cc1c[nH]c2ccccc12)NC(=O)C[C@H](Cc1ccccc1)NC(=O)[C@@H]1CCCC[C@H]1N , state the outcome it received in this test. -1

Given O=C1C=CC2=C3c4cc(O)c(O)cc4C[C@@]3(O)COC2=C1O , state the outcome it received in this test. 1

Given COC(=O)[C@@]1(Cc2ccccc2)[C@H]2c3cc(C(=O)N4CCCC4)n(Cc4cccc5ccccc45)c3C[C@H]2CN1C(=O)c1ccccc1 , state the outcome it received in this test. 1

Given COc1cc(C(=O)O[C@@H]2CC(C)=CC[C@@]3(C)CC[C@](O)(C(C)C)[C@H]23)ccc1O , state the outcome it received in this test. 1

Given COc1cccc(-c2oc3ccccc3c(=O)c2O)c1 , state the outcome it received in this test. 1

Given COC(=O)[C@@]1(Cc2ccc(F)cc2)[C@H]2c3cc(C(=O)N4CCCC4)n(Cc4ccccn4)c3C[C@H]2CN1C(=O)c1ccccc1 , state the outcome it received in this test. 1

Given CCCC[C@@H]1C[C@H]1C(NC(=O)c1ccccc1)c1ccccc1 (stereo not given in full) , state the outcome it received in this test. 1

Given COc1ccc([C@@H]2CC(=O)c3c(O)cc(O[C@@H]4O[C@@H](CO[C@@H]5O[C@@H](C)[C@@H](O)[C@@H](O)[C@H]5O)[C@@H](O)[C@@H](O)[C@H]4O)cc3O2)cc1O , state the outcome it received in this test. -1

Given CC(C)C[C@@H](CC(=O)N[C@@H](CCC(=O)O)CC(=O)O)NC(=O)[C@@H]1CCCC[C@H]1NC(=O)C[C@H](CCCN)NC(=O)C[C@H](Cc1ccccc1)NC(=O)[C@@H]1CNCC[C@H]1N , state the outcome it received in this test. -1

Given COC(=O)[C@H](C)[C@@H]1C[C@@]1(C)[C@@H](NC(=O)OCc1ccccc1)c1ccccc1 , state the outcome it received in this test. 1

Given CCCC[C@@H]1C[C@H]1C(NC(=O)c1ccccc1)c1ccccc1C(F)(F)F (stereo not given in full) , state the outcome it received in this test. 1

Ref: PubChem BioAssay (NCATS)
